Listing: IC50 of selected compounds
target-entity: hSERT (Homo sapiens, UniProt P31645)
Sequence (P31645 whole entry): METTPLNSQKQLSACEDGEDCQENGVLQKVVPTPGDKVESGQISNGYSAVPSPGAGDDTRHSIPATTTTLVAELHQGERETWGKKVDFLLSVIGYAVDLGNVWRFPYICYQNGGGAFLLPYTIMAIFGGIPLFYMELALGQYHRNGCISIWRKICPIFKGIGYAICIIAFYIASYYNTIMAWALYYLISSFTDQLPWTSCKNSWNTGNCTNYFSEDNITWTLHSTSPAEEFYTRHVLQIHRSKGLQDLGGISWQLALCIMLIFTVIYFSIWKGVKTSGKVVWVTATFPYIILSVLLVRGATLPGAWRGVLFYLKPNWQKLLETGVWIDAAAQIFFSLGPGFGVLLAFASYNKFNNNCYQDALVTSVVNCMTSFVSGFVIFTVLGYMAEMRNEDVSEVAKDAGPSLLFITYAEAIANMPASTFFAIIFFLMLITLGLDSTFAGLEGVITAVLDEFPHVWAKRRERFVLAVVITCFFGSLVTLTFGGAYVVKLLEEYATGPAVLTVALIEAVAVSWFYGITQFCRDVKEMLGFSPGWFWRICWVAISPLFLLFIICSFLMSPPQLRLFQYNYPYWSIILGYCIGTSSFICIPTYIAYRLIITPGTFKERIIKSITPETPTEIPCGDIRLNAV
protocol-notes: hSERT neurotransmitter uptake assay (3H-5-HT), Assay 2
Format: cell-based
Parameters: expressed in transfected cells; host or cells: HEK-293
run-parameters: serotonin reuptake inhibition, 3H-5-HT uptake, HEK-293 hSERT cells (values without asterisk); read-out: SERT pIC50 (converted)

Look over these answered cases.
compound | target-entity | test-readout | reported-result
CC[C@@H](Oc1ccc(Cl)cc1C)[C@@H]1CCNC1 [Example 2-60] | hSERT (Homo sapiens, UniProt P31645) | IC50 | ≤ 100 nM
Clc1ccc(O[C@@H](C2CC2)[C@H]2CCNC2)cc1 [Example 16-103] | hSERT (Homo sapiens, UniProt P31645) | IC50 | ≤ 10 nM
CCC[C@@H](Oc1cccc(Cl)c1C)[C@@H]1CCNC1 [Example 4-57] | hSERT (Homo sapiens, UniProt P31645) | IC50 | ≤ 10 nM
COc1cc(Cl)ccc1O[C@@H](C1CC1)[C@H]1CCNC1 [Example 16-37] | hSERT (Homo sapiens, UniProt P31645) | IC50 | ≤ 10 nM

Next item in the queue.
## Input Identify the reported IC50 for the following entry. CC[C@H](Oc1c(Cl)ccc(Cl)c1Cl)[C@H]1CCNC1 [Example 2-37]
## Output ≤ 100 nM

###

target-entity: hSERT (Homo sapiens)
protocol-notes: fluorescence-based serotonin reuptake inhibition assay (Tsuruda et al. 2010; data indicated by an asterisk)
Type: cell-based
Parameters: expressed in transfected cells; host or cells: HEK-293
run-parameters: fluorescence-based assay (values with asterisk), read-out: SERT pIC50 (converted)
test-readout: IC50

compound | target-entity | test-readout | reported-result
CC(C)[C@@H](Oc1ccc(Cl)c(F)c1)[C@H]1CCNC1 | hSERT (Homo sapiens) | IC50 | ≤ 10 nM
CCC[C@H](Oc1cccc(C)c1C)[C@H]1CCNC1 | hSERT (Homo sapiens) | IC50 | ≤ 10 nM
CC(C)[C@@H](Oc1ccc(Cl)c(Cl)c1F)[C@@H]1CCNC1 | hSERT (Homo sapiens) | IC50 | ≤ 10 nM
CC[C@H](Oc1ccc(C)c(F)c1F)[C@H]1CCNC1 | hSERT (Homo sapiens) | IC50 | ≤ 10 nM
Cc1cc(O[C@H](C2CC2)[C@H]2CCNC2)c(Cl)cc1Cl | hSERT (Homo sapiens) | IC50 | ≤ 100 nM
Cc1ccc(O[C@@H](C2CC2)[C@H]2CCNC2)c(F)c1F | hSERT (Homo sapiens) | IC50 | ≤ 10 nM

## Input Identify the reported IC50 for the following entry. CC(C)[C@H](Oc1cccc2ccccc12)[C@@H]1CCNC1
## Output ≤ 10 nM

## Input Identify the reported IC50 for the following entry. Fc1ccc(Cl)c(F)c1O[C@H](C1CC1)[C@H]1CCNC1
## Output ≤ 100 nM

## Input Identify the reported IC50 for the following entry. CC(C)[C@@H](Oc1cccc(Cl)c1F)[C@H]1CCNC1
## Output ≤ 10 nM

## Input Identify the reported IC50 for the following entry. CCC[C@H](Oc1ccc(Cl)c(F)c1Cl)[C@H]1CCNC1
## Output ≤ 10 nM

## Input Identify the reported IC50 for the following entry. Cc1cc(O[C@@H](C2CC2)[C@H]2CCNC2)c(Cl)cc1Cl
## Output ≤ 10 nM

## Input Identify the reported IC50 for the following entry. Clc1cc(Cl)cc(OC(C2CCCC2)C2CCNC2)c1 (stereo not shown) [Example 18-10]
## Output ≤ 100 nM

## Input Identify the reported IC50 for the following entry. Clc1ccc(O[C@H](C2CC2)[C@H]2CCNC2)cc1Cl
## Output ≤ 10 nM

###

Listing: IC50 of selected compounds
target-entity: hSERT (Homo sapiens, UniProt P31645)
protocol-notes: hSERT neurotransmitter uptake assay (3H-5-HT), Assay 2
Format: cell-based
Design: expressed in transfected cells; host or cells: HEK-293
run-parameters: serotonin reuptake inhibition, 3H-5-HT uptake, HEK-293 hSERT cells (values without asterisk); read-out: SERT pIC50 (converted)

compound | test-readout | reported-result
CCc1cc(F)cc(F)c1O[C@@H](C1CC1)[C@H]1CCNC1 | IC50 | ≤ 0.1 µM
CC(C)CC(Oc1cccc(C(F)(F)F)c1)C1CCNC1 (stereo not drawn) | IC50 | ≤ 0.1 µM

## Input Identify the reported IC50 for the following entry. CCC[C@@H](Oc1ccccc1Cl)[C@H]1CCNC1
## Output ≤ 0.1 µM

## Input Identify the reported IC50 for the following entry. CC(C)[C@@H](Oc1cc(Cl)cc(Cl)c1)[C@H]1CCNC1
## Output ≤ 0.01 µM

## Input Identify the reported IC50 for the following entry. Cc1c(Cl)cccc1O[C@H](C(C)C)[C@H]1CCNC1
## Output ≤ 0.01 µM

## Input Identify the reported IC50 for the following entry. CC(C)C[C@H](Oc1ccc(F)cc1)[C@H]1CCNC1
## Output ≤ 0.1 µM

## Input Identify the reported IC50 for the following entry. CC(C)C[C@H](Oc1cc(F)cc(Cl)c1)[C@H]1CCNC1
## Output ≤ 0.01 µM

## Input Identify the reported IC50 for the following entry. CCC[C@H](Oc1cc(Cl)cc(Cl)c1)[C@H]1CCNC1
## Output ≤ 0.01 µM

## Input Identify the reported IC50 for the following entry. Fc1cc(Cl)cc(F)c1O[C@@H](C1CC1)[C@H]1CCNC1
## Output ≤ 0.01 µM

## Input Identify the reported IC50 for the following entry. CC[C@H](Oc1ccc(Cl)cc1C)[C@H]1CCNC1
## Output ≤ 0.01 µM

## Input Identify the reported IC50 for the following entry. CC[C@H](Oc1ccc(Cl)cc1OC)[C@H]1CCNC1
## Output ≤ 0.01 µM

## Input Identify the reported IC50 for the following entry. Fc1cc(Cl)cc(O[C@@H](C2CC2)[C@H]2CCNC2)c1
## Output ≤ 0.1 µM

###

target-entity: hSERT (Homo sapiens)
protocol-notes: hSERT neurotransmitter uptake assay (3H-5-HT), Assay 2
Format: cell-based
Design: expressed in transfected cells; host or cells: HEK-293
run-parameters: serotonin reuptake inhibition, 3H-5-HT uptake, HEK-293 hSERT cells (values without asterisk); read-out: SERT pIC50 (converted)
test-readout: IC50

compound | test-readout | reported-result
CCC[C@H](Oc1c(Cl)cccc1Cl)[C@H]1CCNC1 | IC50 | ≤ 100 nM

## Input Identify the reported IC50 for the following entry. CC(C)CC(Oc1c(F)cc(Cl)cc1F)C1CCNC1 (centres unmarked)
## Output ≤ 10 nM

## Input Identify the reported IC50 for the following entry. CC[C@H](Oc1c(F)ccc(F)c1Cl)[C@H]1CCNC1
## Output ≤ 100 nM

## Input Identify the reported IC50 for the following entry. CCC[C@H](Oc1ccc(Cl)cc1Cl)[C@H]1CCNC1
## Output ≤ 10 nM

## Input Identify the reported IC50 for the following entry. Cc1ccccc1O[C@@H](C1CC1)[C@H]1CCNC1
## Output ≤ 316 nM

###

target-entity: UniProt P31645
pKi: −log10 of the molar value.
Listing: pKi of selected molecules

## Input State pKi on UniProt P31645. Entry: CCC[C@@H](Oc1cccc(Cl)c1Cl)[C@@H]1CCNC1
## Output ≥ 8.00

## Input State pKi on UniProt P31645. Entry: COc1cc(F)ccc1O[C@@H](C1CC1)[C@H]1CCNC1
## Output ≥ 7.00

## Input State pKi on UniProt P31645. Entry: Cc1cc(Cl)ccc1O[C@@H](C1CC1)[C@H]1CCNC1
## Output ≥ 8.00

## Input State pKi on UniProt P31645. Entry: Fc1ccc(O[C@@H](C2CC2)[C@H]2CCNC2)c(F)c1F
## Output ≥ 8.00

## Input State pKi on UniProt P31645. Entry: CC(C)CC(Oc1ccc(Cl)c(F)c1)C1CCNC1 (centres unmarked)
## Output ≥ 8.00

## Input State pKi on UniProt P31645. Entry: Cc1ccc(F)c(O[C@H](C2CC2)[C@H]2CCNC2)c1Cl
## Output ≥ 8.00

## Input State pKi on UniProt P31645. Entry: CC[C@H](Oc1ccc(Cl)c(C)c1)[C@H]1CCNC1
## Output ≥ 8.00

## Input State pKi on UniProt P31645. Entry: CC(C)C[C@H](Oc1c(Cl)ccc(Cl)c1F)[C@H]1CCNC1
## Output ≥ 8.00

## Input State pKi on UniProt P31645. Entry: Fc1cc(Cl)cc(Cl)c1O[C@@H](C1CC1)[C@H]1CCNC1
## Output ≥ 8.00

## Input State pKi on UniProt P31645. Entry: CC[C@H](Oc1cccc(Cl)c1C(F)(F)F)[C@@H]1CCNC1
## Output ≥ 8.00

## Input State pKi on UniProt P31645. Entry: CCC[C@H](Oc1c(Cl)cccc1Cl)[C@@H]1CCNC1
## Output ≥ 7.00

## Input State pKi on UniProt P31645. Entry: COc1c(O[C@@H](C2CC2)[C@H]2CCNC2)ccc(Cl)c1Cl
## Output ≥ 8.00

## Input State pKi on UniProt P31645. Entry: Cc1ccc(Cl)c(O[C@H](C2CC2)[C@H]2CCNC2)c1F
## Output ≥ 7.00
